STUDY TARGET: UniProt P48736
Sequence (P48736 whole entry): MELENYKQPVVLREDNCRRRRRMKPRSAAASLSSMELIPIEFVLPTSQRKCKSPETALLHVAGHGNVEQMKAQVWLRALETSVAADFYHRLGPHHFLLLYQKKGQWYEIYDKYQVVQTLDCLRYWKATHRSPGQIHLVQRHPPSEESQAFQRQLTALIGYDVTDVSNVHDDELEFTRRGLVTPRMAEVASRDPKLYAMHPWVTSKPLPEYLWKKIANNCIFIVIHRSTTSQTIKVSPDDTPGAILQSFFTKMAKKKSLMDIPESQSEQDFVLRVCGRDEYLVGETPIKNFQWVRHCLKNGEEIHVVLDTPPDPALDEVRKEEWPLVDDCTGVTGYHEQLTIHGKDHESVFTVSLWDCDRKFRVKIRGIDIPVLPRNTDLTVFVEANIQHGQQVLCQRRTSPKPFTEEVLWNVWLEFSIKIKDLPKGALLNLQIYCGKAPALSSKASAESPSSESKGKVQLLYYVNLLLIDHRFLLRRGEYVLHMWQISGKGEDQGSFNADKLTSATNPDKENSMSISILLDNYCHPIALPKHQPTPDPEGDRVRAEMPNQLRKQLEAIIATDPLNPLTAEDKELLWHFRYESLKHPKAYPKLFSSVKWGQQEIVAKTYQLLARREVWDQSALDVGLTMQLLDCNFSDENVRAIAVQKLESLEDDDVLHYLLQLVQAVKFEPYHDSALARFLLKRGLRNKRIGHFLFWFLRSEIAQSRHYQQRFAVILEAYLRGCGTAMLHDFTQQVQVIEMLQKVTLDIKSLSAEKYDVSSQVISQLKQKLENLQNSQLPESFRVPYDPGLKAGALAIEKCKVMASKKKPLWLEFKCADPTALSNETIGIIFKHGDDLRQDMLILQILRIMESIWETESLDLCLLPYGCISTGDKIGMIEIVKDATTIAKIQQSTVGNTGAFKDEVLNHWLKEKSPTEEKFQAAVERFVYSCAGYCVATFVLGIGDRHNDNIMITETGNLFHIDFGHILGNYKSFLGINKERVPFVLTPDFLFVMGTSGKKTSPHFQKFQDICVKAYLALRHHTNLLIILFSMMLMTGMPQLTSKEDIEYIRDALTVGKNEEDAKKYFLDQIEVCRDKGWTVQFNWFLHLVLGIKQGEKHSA
pIC50: −log10 of the molar value.
METRIC NAME: pIC50

* COCCOc1cnc2ccc(-c3cnc(OC)c(NS(=O)(=O)c4sc(C)nc4C)c3)cn2c1=O | 9.54

###

STUDY TARGET: PI3Kδ (Homo sapiens (Human))
Sequence (O00329 whole entry, looked up): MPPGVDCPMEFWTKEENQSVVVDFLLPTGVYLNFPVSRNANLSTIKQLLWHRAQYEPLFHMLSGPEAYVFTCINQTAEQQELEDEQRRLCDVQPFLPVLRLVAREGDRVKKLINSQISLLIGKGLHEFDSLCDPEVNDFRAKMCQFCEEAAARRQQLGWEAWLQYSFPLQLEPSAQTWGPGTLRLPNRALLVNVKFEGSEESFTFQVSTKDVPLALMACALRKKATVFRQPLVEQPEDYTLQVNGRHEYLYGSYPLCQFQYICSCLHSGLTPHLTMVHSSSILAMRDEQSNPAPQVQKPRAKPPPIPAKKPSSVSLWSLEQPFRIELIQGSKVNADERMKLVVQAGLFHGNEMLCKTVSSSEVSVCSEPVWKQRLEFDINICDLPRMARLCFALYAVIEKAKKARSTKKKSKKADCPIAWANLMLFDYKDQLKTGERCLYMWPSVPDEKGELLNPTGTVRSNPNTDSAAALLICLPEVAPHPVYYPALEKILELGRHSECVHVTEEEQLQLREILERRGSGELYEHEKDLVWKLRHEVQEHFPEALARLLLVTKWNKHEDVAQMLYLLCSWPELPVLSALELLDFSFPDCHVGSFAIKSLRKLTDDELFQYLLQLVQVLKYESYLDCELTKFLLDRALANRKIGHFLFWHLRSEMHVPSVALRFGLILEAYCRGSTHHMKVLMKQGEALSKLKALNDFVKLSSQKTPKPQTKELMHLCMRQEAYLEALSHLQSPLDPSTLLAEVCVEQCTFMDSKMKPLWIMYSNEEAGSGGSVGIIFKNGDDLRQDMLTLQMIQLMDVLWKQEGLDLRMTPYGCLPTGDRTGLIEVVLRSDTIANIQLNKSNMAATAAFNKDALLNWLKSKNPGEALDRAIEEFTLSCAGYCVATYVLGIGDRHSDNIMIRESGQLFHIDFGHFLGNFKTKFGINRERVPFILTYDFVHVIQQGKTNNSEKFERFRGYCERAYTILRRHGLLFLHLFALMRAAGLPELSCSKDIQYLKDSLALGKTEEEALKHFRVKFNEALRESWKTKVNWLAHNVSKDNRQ
Sequence (P27986 whole entry partner, looked up): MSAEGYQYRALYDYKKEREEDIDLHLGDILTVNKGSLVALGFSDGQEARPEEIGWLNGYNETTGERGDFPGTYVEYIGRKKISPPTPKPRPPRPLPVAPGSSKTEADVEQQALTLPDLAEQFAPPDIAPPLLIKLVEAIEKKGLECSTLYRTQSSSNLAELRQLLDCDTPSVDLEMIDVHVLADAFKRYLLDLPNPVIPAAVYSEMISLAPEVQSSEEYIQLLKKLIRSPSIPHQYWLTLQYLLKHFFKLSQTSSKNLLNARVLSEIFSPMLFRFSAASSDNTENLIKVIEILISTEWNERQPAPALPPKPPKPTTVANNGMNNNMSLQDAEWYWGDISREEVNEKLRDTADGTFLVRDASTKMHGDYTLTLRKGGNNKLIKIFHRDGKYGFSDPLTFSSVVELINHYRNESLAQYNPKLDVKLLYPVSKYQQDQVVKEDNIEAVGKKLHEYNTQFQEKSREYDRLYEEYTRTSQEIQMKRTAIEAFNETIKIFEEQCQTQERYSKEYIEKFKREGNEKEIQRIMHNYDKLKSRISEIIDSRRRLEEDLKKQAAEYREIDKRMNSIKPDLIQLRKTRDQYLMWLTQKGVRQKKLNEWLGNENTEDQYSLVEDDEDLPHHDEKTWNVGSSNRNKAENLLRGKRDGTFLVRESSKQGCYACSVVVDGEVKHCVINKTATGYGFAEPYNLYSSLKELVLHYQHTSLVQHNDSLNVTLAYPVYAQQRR
METRIC NAME: IC50 (nM)

- COCCOc1cnc2ccc(-c3cnc(OC)c(NS(=O)(=O)c4sc(C)nc4C)c3)cn2c1=O: 0.18
